B1: library; numbered along this chain (parent)
chain: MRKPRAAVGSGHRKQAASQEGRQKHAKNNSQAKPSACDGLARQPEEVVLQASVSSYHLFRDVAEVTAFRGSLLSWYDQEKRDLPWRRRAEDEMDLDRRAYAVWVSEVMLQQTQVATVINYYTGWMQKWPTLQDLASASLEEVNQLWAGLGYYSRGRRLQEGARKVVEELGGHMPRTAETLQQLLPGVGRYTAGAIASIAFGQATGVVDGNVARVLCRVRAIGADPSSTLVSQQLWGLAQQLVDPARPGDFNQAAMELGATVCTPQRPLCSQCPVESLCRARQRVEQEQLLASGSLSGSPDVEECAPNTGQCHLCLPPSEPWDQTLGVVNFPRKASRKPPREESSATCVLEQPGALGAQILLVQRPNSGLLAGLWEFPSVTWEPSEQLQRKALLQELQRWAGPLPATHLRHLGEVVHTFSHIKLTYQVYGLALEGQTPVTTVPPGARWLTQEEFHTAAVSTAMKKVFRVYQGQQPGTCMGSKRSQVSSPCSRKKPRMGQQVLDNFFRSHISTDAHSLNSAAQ

# Variants of: B1
# PROCEDURE_TEXT: 8OG:A repair function score (normalized; synonymous = 0, nonsense = -1) (normalized log-likelihood score); higher = more repair activity (WT-like);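 note: cells sorted at 72 h after reporter transfection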
# RUN_CONDITIONS: with 8OG:A DNA repair reporter (GFP) in HEK-293 MUTYH KO cells
Kind request: treat -0.1 as inclusive, so 8OG:A repair function score at -0.1 or higher is Y, anything lower is N.

Reference set, count: 5
Task: Does the variant A67Y have recorded 8OG:A repair function score that is -0.1 or more?
Output: Y

Task: Does the variant C304T have recorded 8OG:A repair function score that is -0.1 or more?
Output: N

Task: Does the variant Q265E have recorded 8OG:A repair function score that is -0.1 or more?
Output: N

Task: Does the variant E319H have recorded 8OG:A repair function score that is -0.1 or more?
Output: Y

Task: Does the variant T449Q have recorded 8OG:A repair function score that is -0.1 or more?
Output: Y

Next:
Task: Does the variant A162H have recorded 8OG:A repair function score that is -0.1 or more?
Output: N

Task: Does the variant A345Y have recorded 8OG:A repair function score that is -0.1 or more?
Output: N

Task: Does the variant A162P have recorded 8OG:A repair function score that is -0.1 or more?
Output: N
